- Tested on: Candida albicans
- ASSAY_TEXT: Binding affinity to Candida albicans CaCdr1p expressed in yeast AD1-8u
Active and inactive are the calls of the source. The rule behind the calls is not given here.
Give your call using only these classes: label 1 = active, label 0 = inactive

The following compounds have reported results that may help.
INSERT INTO assay_data (compound, test_target, label_class) VALUES
  ('COc1c(C)c2c(c(O)c1C/C=C(\C)CCC(=O)O)C(=O)OC2', 'Candida albicans', 'label 0'),
  ('c1c[nH]cn1', 'Candida albicans', 'label 0'),
  ('CC/N=c1\cc2oc3cc(NCC)c(C)cc3c(-c3ccccc3C(=O)OCC)c-2cc1C.Cl [RHODAMINE 6G HYDROCHLORIDE]', 'Candida albicans', 'label 1');

Input line: # outcome recorded in this test, key = CC(=O)N1CCN(c2ccc(OCC3COC(Cn4ccnc4)(c4ccc(Cl)cc4Cl)O3)cc2)CC1 (stereo unspecified)
Output line: label 1

Input line: Record: CON(C)C(=O)Nc1ccc(Cl)c(Cl)c1
Output line: label 1

Input line: Record: COc1cc([C@@H]2c3cc4c(cc3[C@@H](O[C@@H]3O[C@@H]5CO[C@@H](C)O[C@H]5[C@H](O)[C@H]3O)[C@H]3COC(=O)[C@H]23)OCO4)cc(OC)c1O [ETOPOSIDE]
Output line: label 1

Input line: Record: c1ccc(CNc2ncnc3[nH]cnc23)cc1
Output line: label 0

Input line: Record: COC(=O)C1=C(C)NC(C)=C(C(=O)OC)C1c1ccccc1[N+](=O)[O-]
Output line: label 0

Input line: Record: CN[C@H]1C[C@@H](N)[C@H](O)[C@@H](O[C@@H]2O[C@H](CO)[C@H](O)[C@H]3O[C@@]4(O[C@H]23)O[C@H]([C@H](N)CO)[C@H](O)[C@H](O)[C@H]4O)[C@@H]1O
Output line: label 0

Input line: Record: COC(=O)c1ccccc1-c1c2ccc(=N)cc-2oc2cc(N)ccc12.Cl
Output line: label 1

Cited source: ChEMBL document CHEMBL1275276
